system: Escherichia coli TOP10; assay: shrunken log2 fold change of peptide-encoding DNA abundance (4.5 h post-induction vs induction); higher = less antimicrobial activity (less host growth inhibition); settings: time post-induction: 4.5 h; library: site-saturation at positions 5, 18, 19, 20
Decide using shrunken log2 fold change: a value greater than or equal to -0.2 is Condition met, a smaller one is Condition not met.

Below are worked cases with known answers.
RRIRCRPPRLPRPRPRPQECPRP = Condition met
RRIRDRPPRLPRPRPRPGYVPRP = Condition met

Has RRIRRRPPRLPRPRPRPTKPPRP a recorded shrunken log2 fold change greater than or equal to -0.2?
Condition met

Has RRIRIRPPRLPRPRPRPLWAPRP a recorded shrunken log2 fold change greater than or equal to -0.2?
Condition met

Has RRIRVRPPRLPRPRPRPHYMPRP a recorded shrunken log2 fold change greater than or equal to -0.2?
Condition not met

Has RRIRVRPPRLPRPRPRPCRTPRP a recorded shrunken log2 fold change greater than or equal to -0.2?
Condition not met

Has RRIRYRPPRLPRPRPRPHTHPRP a recorded shrunken log2 fold change greater than or equal to -0.2?
Condition not met

Has RRIRERPPRLPRPRPRPGCHPRP a recorded shrunken log2 fold change greater than or equal to -0.2?
Condition met

Has RRIRNRPPRLPRPRPRPCCNPRP a recorded shrunken log2 fold change greater than or equal to -0.2?
Condition not met

Has RRIRPRPPRLPRPRPRPVFQPRP a recorded shrunken log2 fold change greater than or equal to -0.2?
Condition met

Has RRIRKRPPRLPRPRPRPVSWPRP a recorded shrunken log2 fold change greater than or equal to -0.2?
Condition met

Has RRIRFRPPRLPRPRPRPTATPRP a recorded shrunken log2 fold change greater than or equal to -0.2?
Condition met

Has RRIRLRPPRLPRPRPRPFGCPRP a recorded shrunken log2 fold change greater than or equal to -0.2?
Condition met

Has RRIRMRPPRLPRPRPRPWKGPRP a recorded shrunken log2 fold change greater than or equal to -0.2?
Condition met

Has RRIRPRPPRLPRPRPRPAQHPRP a recorded shrunken log2 fold change greater than or equal to -0.2?
Condition met

---

test system: Escherichia coli TOP10; experiment: shrunken log2 fold change of peptide-encoding DNA abundance (4.5 h post-induction vs induction); higher = less antimicrobial activity (less host growth inhibition); conditions: time post-induction: 4.5 h; library: site-saturation at positions 5, 18, 19, 20;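 note: peptides expressed intracellularly from a pBAD plasmid library in pooled LB shake-flask culture, induced with 0.3% L-arabinose, DNA abundance read by NGS, three biological replicates, DESeq2 with apeglm shrinkage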
measurement-type: shrunken log2 fold change
Returns: the value as a bare number; no unit string appended.

RRIRPRPPRLPRPRPRPVNVPRP = -0.326
RRIRQRPPRLPRPRPRPLSYPRP = 0.121
RRIRDRPPRLPRPRPRPMTEPRP = 0.0462

What measured shrunken log2 fold change is associated with RRIRARPPRLPRPRPRPPVEPRP on Escherichia coli TOP10?
0.292

What measured shrunken log2 fold change is associated with RRIRLRPPRLPRPRPRPERNPRP on Escherichia coli TOP10?
0.129

What measured shrunken log2 fold change is associated with RRIRNRPPRLPRPRPRPYEMPRP on Escherichia coli TOP10?
-0.0417

What measured shrunken log2 fold change is associated with RRIRFRPPRLPRPRPRPDDDPRP on Escherichia coli TOP10?
0.114

What measured shrunken log2 fold change is associated with RRIRCRPPRLPRPRPRPYHKPRP on Escherichia coli TOP10?
-0.743

What measured shrunken log2 fold change is associated with RRIRLRPPRLPRPRPRPCACPRP on Escherichia coli TOP10?
-0.385

What measured shrunken log2 fold change is associated with RRIRHRPPRLPRPRPRPTNEPRP on Escherichia coli TOP10?
-0.512

What measured shrunken log2 fold change is associated with RRIRCRPPRLPRPRPRPGFEPRP on Escherichia coli TOP10?
0.244

What measured shrunken log2 fold change is associated with RRIRIRPPRLPRPRPRPQSGPRP on Escherichia coli TOP10?
0.00632

What measured shrunken log2 fold change is associated with RRIRGRPPRLPRPRPRPEGHPRP on Escherichia coli TOP10?
1.8

What measured shrunken log2 fold change is associated with RRIRYRPPRLPRPRPRPRATPRP on Escherichia coli TOP10?
-0.0516

What measured shrunken log2 fold change is associated with RRIRGRPPRLPRPRPRPGIIPRP on Escherichia coli TOP10?
0.0469

Sourced from the supplement of paper PMC9112550
